# Test target: aldosterone receptor (Rattus norvegicus)
# Construct: centrifuged at 105,000 g for 30 minutes, and then a supernatant was collected as a renal soluble fraction
# Sequence (P22199 1-981): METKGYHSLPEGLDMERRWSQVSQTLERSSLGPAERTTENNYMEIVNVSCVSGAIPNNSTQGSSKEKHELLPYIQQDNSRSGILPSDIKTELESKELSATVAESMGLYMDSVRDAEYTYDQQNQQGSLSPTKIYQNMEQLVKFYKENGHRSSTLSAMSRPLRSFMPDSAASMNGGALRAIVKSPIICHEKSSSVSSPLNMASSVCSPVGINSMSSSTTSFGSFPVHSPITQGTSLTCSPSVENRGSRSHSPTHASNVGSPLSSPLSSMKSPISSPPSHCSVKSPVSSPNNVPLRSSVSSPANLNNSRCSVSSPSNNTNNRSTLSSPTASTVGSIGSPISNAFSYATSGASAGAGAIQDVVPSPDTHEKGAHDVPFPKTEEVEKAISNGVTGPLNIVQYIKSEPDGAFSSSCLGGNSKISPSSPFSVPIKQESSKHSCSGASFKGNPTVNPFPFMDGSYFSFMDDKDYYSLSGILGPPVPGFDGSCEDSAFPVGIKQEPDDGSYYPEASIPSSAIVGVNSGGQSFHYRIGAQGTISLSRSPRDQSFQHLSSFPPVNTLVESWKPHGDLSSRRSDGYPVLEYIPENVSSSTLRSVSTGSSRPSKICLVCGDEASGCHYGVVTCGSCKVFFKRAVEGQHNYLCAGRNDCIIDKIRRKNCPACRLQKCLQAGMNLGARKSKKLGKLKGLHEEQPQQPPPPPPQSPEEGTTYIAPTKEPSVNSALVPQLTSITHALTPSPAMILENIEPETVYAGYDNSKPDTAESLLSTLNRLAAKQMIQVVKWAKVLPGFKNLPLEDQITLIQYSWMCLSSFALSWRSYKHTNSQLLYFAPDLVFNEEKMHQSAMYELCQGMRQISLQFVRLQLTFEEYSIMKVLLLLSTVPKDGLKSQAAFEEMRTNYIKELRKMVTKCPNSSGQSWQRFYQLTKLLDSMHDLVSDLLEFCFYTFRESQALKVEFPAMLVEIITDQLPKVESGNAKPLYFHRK
# Protocol: Binding inhibition test for aldosterone receptor ([3H]aldosterone, rat renal soluble fraction)
# Condition parameters: [3H]aldosterone 2 nM, rat renal soluble fraction, in the presence of 2 μM RU-486, 4° C. about 18 hours; read-out: MR IC50
Readout kind: IC50

COCCNCc1cc(NC(=O)c2ccc(S(N)(=O)=O)c(OC)c2)ccc1-c1ccccc1OC(F)(F)F | 540 nM
COc1cc(NC(=O)c2ccc(-c3ccccc3Cl)c(CNCC(F)F)c2)ccc1S(N)(=O)=O | 550 nM
COc1cc(NC(=O)c2ccc(-c3ccccc3OC(F)(F)C(F)F)c(CNCC(F)F)c2)ccc1S(N)(=O)=O | < 10000 nM
COc1cc(C(=O)Nc2ccc(-c3ccccc3OC(F)(F)F)c(C)c2)ccc1S(N)(=O)=O | 1200 nM
COc1cc(C(=O)Nc2ccc(-c3ccccc3C(F)(F)F)c(CN3CCC4(CC3)OCCO4)c2)ccc1S(N)(=O)=O | 520 nM

Data request: Determine from records and report IC50 for `CCN(Cc1ccccc1)Cc1cc(C(=O)Nc2ccc(S(C)(=O)=O)cc2)ccc1-c1ccccc1OC(F)(F)F`
Data returned: < 10000 nM

Values compiled from patent US20130116227A1.
